Measured koff, listed per entry.
target-entity: HLA-A*0201 loaded with the Carcinoembryonic antigen (CEA)-derived … peptide (biotinylated on the C-terminal biotinylation tag)
assay-details: SPR (Biacore), Example 4

Q) Note down koff recorded for SEQ ID NO 80 (receptor) MHLPKPTLWAEPGSVITMDQPVTLRCQGGQETQEYRLYREKKTAPWITRIPQELVKKGQFPIPSITWEHAGRYRCYYGSDTSQWSASSDPLELVVTGVYIKPTLSAQPSPVVNSGGNVTLQCDSQVAFDGFILSKEGEDEHPQSLNSQPHARGSSRAIFSVGPVSPSRRWWYRCYAYDSNSPYEWSLPSDLLELDVDG
A) ≤ 2 s⁻¹

Q) Please give the documented koff of SEQ ID NO 35 (receptor) MGHLPKPTLWAEPGSVITQGSPVTLRCQGGQETQEYRLYREKKTAPWITRIPQELVKKGQFPIPSITWEHAGRYRCYYGSDTAGRSESSDPLELVVTGIYRQPTLSAQPSPVVNSGGNVTLQCDSQVAFDGFILCKEGEDEHPQCLNSQPHARGSSRAIFSVGPVSPSRRWWYRCYAYDSNSPYEWSLPSDLLELLVL
A) ≤ 2 s⁻¹
